Tested on: MOLT-4 leukemia
experiment notes: NCI tumour cell line growth inhibition, 48 h; in the data active = GI50 below about 0.43 µM; inactive = the rest
Response enum: active, inactive

Use the examples below as a reference point.
| structure notation | group |
| --- | --- |
| O=C(CCl)Nc1ccccc1SCc1cc(Cl)cc2c1OCOC2 | inactive |
| NCCCn1c2c(c3ccccc3c1=O)C(=O)c1cc3c(cc1-2)OCO3 | active |
| CCN(Cc1ccc(F)cc1F)c1ccc(CO)c(Cl)c1 | inactive |

Request: Dear colleague, could you share the recorded outcome for COc1cc2c3c(n(CCCO)c(=O)c2cc1OC)-c1cc2c(cc1C3=O)OCO2 when you have a moment?
Result: inactive

Request: What was the test verdict on COc1ccc(C(=O)c2cc(OC)c(OC)c(OC)c2)cc1/C=C/C(=O)c1ccc(O)cc1 ?
Result: inactive

---

Tested on: HT29 colon
experiment notes: NCI tumour cell line growth inhibition, 48 h
outcome measure: TGI (µM)
Numbers only, in µM.

| compound | unit text | TGI |
| --- | --- | --- |
| CC(C)(C)[Si](C)(C)OC1[C@@H](O[Si](C)(C)C(C)(C)C)[C@@H](CNC(=O)NC(=O)NC(=O)CI)O[C@H]1n1cnc2c(NC(=O)Nc3ccccc3)ncnc21 (some centres undefined) | µM | 0.771 |

// next item, TGI requested
# lookup: O=C1C(c2ccc(Cl)cc2)=[N+]([O-])c2ccccc21 on HT29 colon, TGI = 43.6

---

Test system: NCI-H460 lung
experiment notes: NCI tumour cell line growth inhibition, 48 h
outcome measure: GI50

| structure notation | system name | GI50 |
| --- | --- | --- |
| N#Cc1c2ccccc2c2nnc3cc(C(F)(F)F)ccc3n12 | NCI-H460 lung | 37.1 µM |
| COc1ccc(/C=C/C(=O)/C=C(/C=C/c2ccc(OC)c(OC)c2)OB(F)F)cc1OC | NCI-H460 lung | 1.68 µM |
| O=C(Nc1cccc(NS(=O)(=O)c2ccc(F)cc2)c1)c1ccc(-c2ccccc2)cc1 | NCI-H460 lung | 3.42 µM |

Pending compound:
Just so you know, measured GI50 for C[C@@H](Oc1cc(-c2cnn(C3CCNCC3)c2)cnc1N)c1c(Cl)ccc(F)c1Cl came out at 0.662 µM

---

Answer each item with its documented GI50.
System: U251 CNS

Solved cases below.
| structure notation | system name | GI50 |
| --- | --- | --- |
| O=C1c2cccnc2-c2nc(-c3ccccn3)cc3c2c1nc1ccccc13 | U251 CNS | 0.149 µM |
| COC(=O)c1ccc(-c2nc3cc(F)c(F)cc3nc2C#N)cc1 | U251 CNS | 10.1 µM |
| c1ccc(Oc2c3ccccc3nc3ccccc23)cc1 | U251 CNS | 3.26 µM |
| COc1cccc(-c2nc(-c3ccc(NS(=O)(=O)c4ccccc4)cc3)[nH]c2-c2ccnc(Br)c2)c1 | U251 CNS | 2.73 µM |
| C[C@@H](Oc1cc(-c2cnn(C3CCNCC3)c2)cnc1N)c1c(Cl)ccc(F)c1Cl | U251 CNS | 1.98 µM |

Next item in the queue.
The reported GI50 of the molecule O=C(Nc1cccc(NS(=O)(=O)c2ccc(F)cc2)c1)c1ccc(-c2ccccc2)cc1 was 3.92 µM

---

Test system: K-562 leukemia
experiment notes: NCI tumour cell line growth inhibition, 48 h
outcome measure: TGI

These solved cases illustrate the format of a correct answer.
| compound | system name | val |
| --- | --- | --- |
| c1ccc2c(c1)Sc1ccccc1N2CCCN1c2ccccc2Sc2ccccc21 | K-562 leukemia | > 100 µM |
| COC(=O)/C=C/COCC1C2CCC(=O)C21 (stereo unspecified) | K-562 leukemia | > 100 µM |

Please give TGI for each item listed below.
1. COC(=O)C1=C(O)C(C(=O)OC)[C@]2(O)[C@H](C(=O)OC)[C@H]1C[C@@H](c1ccc(Cl)cc1Cl)[C@H]2C(=O)OC (stereo partly specified)
2. C=C1C(=O)O[C@H]2[C@H]1CC/C(COC(=O)/C=C/c1cccnc1)=C\CC[C@@]1(C)O[C@@H]21
3. CC1=CCP(C(F)(F)F)P(C(F)(F)F)C1 (stereo unspecified)
4. N/C(=N\Nc1cccc(Cl)c1)c1cccnc1
5. COc1c2c(c(OC)c3c(=O)cc(C/C(=N/NC(=O)C[n+]4ccccc4)C(=O)Nc4cc(C)ccc4C)oc13)OCO2
6. COP(=N[Si](C)(C)C)(OC)OC

Result:
1: 14 µM; 2: 6.13 µM; 3: > 100 µM; 4: > 100 µM; 5: > 100 µM; 6: > 100 µM
